- system-tested: T1, MPDZ_5, O75970
- T1 sequence (O75970 695-796, limits assumed, looked up): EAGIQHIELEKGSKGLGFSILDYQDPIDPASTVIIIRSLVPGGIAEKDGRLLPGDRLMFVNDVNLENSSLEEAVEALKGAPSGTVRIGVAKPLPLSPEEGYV
- protocol-text: holdup assay
- Set-up: key: below the threshold = too weak to quantify, mostly under pKd 3.1 to 4
- study-conditions: plain residues with an end cap or a label only (N-terminal biotin on a linker: ttds)
assay-readout: pKd

FVETQHQTQV [FAT3, Q8TDW7] = below the threshold
KQVVPFSSSV [GDA, Q9Y2T3] = 3.52
SSIDLWETAL [SLC15A5, A6NIM6] = below the threshold
